- TEST SYSTEM: T1, Glycoprotein VI extracellular domain (Gln21-Lys267) (Homo sapiens, UniProt Q9HCN6 SEQ:1-247)
- T1 chain: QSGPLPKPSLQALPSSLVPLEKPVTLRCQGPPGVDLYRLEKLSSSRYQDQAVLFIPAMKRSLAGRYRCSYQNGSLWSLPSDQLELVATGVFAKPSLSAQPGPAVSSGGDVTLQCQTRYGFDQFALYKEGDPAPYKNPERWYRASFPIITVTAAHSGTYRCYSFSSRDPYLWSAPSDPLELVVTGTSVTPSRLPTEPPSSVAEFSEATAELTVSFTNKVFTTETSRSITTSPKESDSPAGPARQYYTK
- METHOD SUMMARY: filter; buffer F, 37 C
- CONDITIONS: tags: C-terminal His6; R&D Systems 3627-GP; label: 5'-32P
ASSAY READOUT: pKd
Lab note — pKd values are minus log10 of concentrations in M.

Ask | // returns reported pKd for input EF-2 (RB427) (ssRNA, 2'-F C and U; 2'-OH A and G) RNA: GGGAGGACGAUGCGGUGCCAAAACACCCGUCUUGCAUAAGCCUCCUACGGCAACUCAGACGACUCGCUGAGGAUCCGAGA
Reply | 7.81
